Reference for the values: ChEMBL document CHEMBL2157918

system: Vero; assay: Cytotoxicity against african green monkey Vero cells after 3 days by MTT assay; type: cell-based; details: Chlorocebus sabaeus, 72 h
observable: IC50 (µg/mL)
Provide the reading as a plain figure in µg/mL.

// below: answered compounds
compound	IC50 / µg/mL
OCCc1cn(CC(O)c2ccc(Cl)cc2Cl)nn1 (configuration not stated)	274
CC(C)(C)c1cn(CC(O)c2ccc(Cl)cc2Cl)nn1 (configuration not stated)	33.9
OCCc1cn(CC(OCc2ccc(Cl)cc2)c2ccc(Cl)cc2Cl)nn1 (configuration not stated)	24.3
CCCCc1cn(CC(OCc2ccc(Cl)cc2)c2ccc(Cl)cc2Cl)nn1 (configuration not stated)	10.6
OCc1cn(CC(OCc2ccc(Cl)cc2)c2ccc(Cl)cc2Cl)nn1 (configuration not stated)	19.8

Read the entry OCCc1cn(CC(OCc2ccc(F)cc2F)c2ccc(Cl)cc2Cl)nn1 (configuration not stated) and write its reported IC50. 33.7

Output IC50 of Nc1cccc(-c2cn(CC(O)c3ccc(Cl)cc3Cl)nn2)c1 (configuration not stated) 26.8

Annotate the compound CCCCc1cn(CC(OCc2ccc(OC(F)(F)F)cc2)c2ccc(Cl)cc2Cl)nn1 (configuration not stated) with its measured IC50. 63.4

Please report IC50 for the following compound: CCCCc1cn(CC(OCc2ccc(F)cc2F)c2ccc(Cl)cc2Cl)nn1 (configuration not stated) 21

Retrieve IC50 measured for OC(Cn1cc(C2CCCCC2)nn1)c1ccc(Cl)cc1Cl (configuration not stated) and print it. 31.9

Output IC50 of Nc1ccc(-c2cn(CC(O)c3ccc(Cl)cc3Cl)nn2)cc1 (configuration not stated) 33.9

For CCCCc1cn(CC(O)c2ccc(Cl)cc2Cl)nn1 (configuration not stated) , write its IC50. 23.3

###

test system: Vero; assay: Cytotoxicity against african green monkey Vero cells after 3 days by MTT assay; format: cell-based; conditions: Chlorocebus sabaeus, 72 h
# reported IC50; entries follow

compound	IC50
CC(C)(C)c1cn(CC(OCc2ccc(Cl)cc2)c2ccc(Cl)cc2Cl)nn1 (stereo not given)	> 25 µg/mL
Nc1ccc(-c2cn(CC(OCc3ccc(Cl)cc3)c3ccc(Cl)cc3Cl)nn2)cc1 (stereo not given)	> 50 µg/mL
Clc1ccc(COC(Cn2cc(C3CCCCC3)nn2)c2ccc(Cl)cc2Cl)cc1 (stereo not given)	> 12.5 µg/mL

We next turn to a different compound, shown below.
State its IC50: Clc1ccc(COC(Cn2nnc3ccccc32)c2ccc(Cl)cc2Cl)cc1 (stereo not given) > 12.5 µg/mL

###

tested on: Vero; assay: Cytotoxicity against african green monkey Vero cells after 3 days by MTT assay; format: cell-based; details: Chlorocebus sabaeus, 72 h
observable: IC50

Here is how some compounds turned out for IC50.
compound	IC50
Nc1cccc(-c2cn(CC(OCc3ccc(Cl)cc3)c3ccc(Cl)cc3Cl)nn2)c1 (stereo unspecified)	> 50 µg/mL
OCc1cn(CC(O)c2ccc(Cl)cc2Cl)nn1 (stereo unspecified)	> 100 µg/mL
OC(Cn1nnc2ccccc21)c1ccc(Cl)cc1Cl (stereo unspecified)	> 100 µg/mL
Clc1ccc(COC(Cn2ccnn2)c2ccc(Cl)cc2Cl)cc1 (stereo unspecified)	> 12.5 µg/mL
Clc1ccc(COC(Cn2cc(-c3ccccn3)nn2)c2ccc(Cl)cc2Cl)cc1 (stereo unspecified)	> 50 µg/mL

API: the following record is the query input.
Assign IC50 to the following record: OC(Cn1ccnn1)c1ccc(Cl)cc1Cl (stereo unspecified) > 200 µg/mL
